Tested on: IGROV1 ovarian
Test: NCI tumour cell line growth inhibition, 48 h
Lab note: anything with TGI at or over 30 µM counts as t; the rest go in f.

molecule=O=C1C(=O)c2c(O)ccc(O)c2C(O)=C1Cl study_target="IGROV1 ovarian" class_label=t
molecule="CCCCCc1cc2cc3c(c(O)c2c(=O)[nH]1)C1(CC3)C(O)=c2c(=O)c3c(=O)cc(OC)c(=O)c=3c(=O)c2=C1O (configuration not stated)" study_target="IGROV1 ovarian" class_label=f
molecule="CCOC(=O)C1=C(N)CCC1C (configuration not stated)" study_target="IGROV1 ovarian" class_label=t
molecule="N#CC(/C(=N/N=C(N)N)C(=O)Nc1ccccc1[N+](=O)[O-])c1nc(-c2ccc([N+](=O)[O-])cc2)cs1 (configuration not stated)" study_target="IGROV1 ovarian" class_label=t
molecule=CNC(=S)N/N=C(\C)c1cc(OC)ccc1O study_target="IGROV1 ovarian" class_label=t
molecule="Cc1cn(CCCCCCOC(=O)NC(CCCN=C(N)N)C(=O)O)c(=O)[nH]c1=O (configuration not stated)" study_target="IGROV1 ovarian" class_label=t
molecule=O=C1/C(=C/c2cccc([N+](=O)[O-])c2)N=C(c2ccccc2)N1c1nc2c(Cl)cc(Cl)cc2s1 study_target="IGROV1 ovarian" class_label=t
molecule=c1ccc2c(c1)c(N1CCCCC1)cc1nc3c(cc(N4CCCCC4)c4ccccc43)nc12 study_target="IGROV1 ovarian" class_label=t
molecule="CCCOP1(=O)C=CC(Cl)=C(C)C1 (configuration not stated)" study_target="IGROV1 ovarian" class_label=t
molecule=CCOC(=O)c1ccc2[nH]c(O)c(C(=Nc3ccc(N(C)C(=O)CN4CCN(C)CC4)cc3)c3ccccc3)c2c1 study_target="IGROV1 ovarian" class_label=f
molecule=CCOc1ccc2nc(S/C(=C/C=C(C#N)C#N)c3ccc(Cl)cc3)sc2c1 study_target="IGROV1 ovarian" class_label=f
molecule=N#Cc1c(N)nc(NCc2ccccc2)c(C#N)c1-c1ccc(Cl)cc1 study_target="IGROV1 ovarian" class_label=t

All values here come from PubChem BioAssay (NCI).
